- Measured on: CYP11B2 (Homo sapiens (Human))
- Sequence (P19099 25-503): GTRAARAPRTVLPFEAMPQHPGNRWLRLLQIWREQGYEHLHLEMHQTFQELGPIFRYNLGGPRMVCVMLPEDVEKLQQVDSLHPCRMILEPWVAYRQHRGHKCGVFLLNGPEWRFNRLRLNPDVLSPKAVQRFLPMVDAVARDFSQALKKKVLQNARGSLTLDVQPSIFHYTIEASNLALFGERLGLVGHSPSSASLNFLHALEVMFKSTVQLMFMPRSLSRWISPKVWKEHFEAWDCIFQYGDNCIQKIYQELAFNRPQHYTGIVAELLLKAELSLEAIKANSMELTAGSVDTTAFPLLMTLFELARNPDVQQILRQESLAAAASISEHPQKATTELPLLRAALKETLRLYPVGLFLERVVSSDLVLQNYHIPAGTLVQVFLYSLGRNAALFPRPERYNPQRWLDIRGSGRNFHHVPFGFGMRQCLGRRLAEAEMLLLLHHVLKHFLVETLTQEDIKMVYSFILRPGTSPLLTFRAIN
- Assay text: G-402 cellular enzyme assay, human CYP11B2 (aldosterone release, HTRF)
- Experimental conditions: G-402 cells expressing human CYP11B2, 1 μM Deoxycorticosterone
pEC50: −log10 of the molar value.
Recorded pEC50 values for a group of compounds are listed next.
Endpoint: pEC50

C[C@@H]1c2cc(Cl)ccc2C(=O)N1c1cncc(NC2CN(S(=O)(=O)C3CC3)C2)c1 (single isomer, unassigned) [Example 29] :: 7.54
Cn1cc(C(=O)N2CC(Nc3cncc(N4CCc5cc(Cl)ccc5C4=O)c3)C2)cn1 :: 8.15
CC1(C)c2cc(Cl)ccc2C(=O)N1c1cncc(NC2CN(C(=O)c3ncccc3Cl)C2)c1 :: 8.15
CC1(C)c2cc(C#N)ccc2C(=O)N1c1cncc(NC2CN(S(=O)(=O)C3CC3)C2)c1 :: 7.92
Cc1ccncc1C(=O)N1CCC(Nc2cncc(N3C(=O)c4ccc(C#N)cc4C3(C)C)c2)CC1 :: 7.15
Cc1ccncc1C(=O)N1CC(Nc2cncc(N3C(=O)c4ccc(Cl)cc4C3C)c2)C1 (centres unmarked) :: 8.15
Cc1ccncc1C(=O)N1CC(Nc2cncc(N3C(=O)c4ccc(Cl)cc4[C@H]3C)c2)C1 (single isomer, unassigned) [Example 26] :: 7.80
CN(c1cncc(N2C(=O)c3ccc(Cl)cc3C2(C)C)c1)C1CCN(S(=O)(=O)C2CC2)C1 (single isomer, unassigned; (+)) [Example 4] :: 8.70
CC1(C)c2cc(Cl)ccc2C(=O)N1c1cncc(NC2CCCN(S(=O)(=O)C3CC3)C2)c1 (single isomer, unassigned; (+)) [Example 7] :: 6.64
Cn1ccnc1C(=O)N1CCC(Nc2cncc(N3C(=O)c4ccc(C#N)cc4C3(C)C)c2)CC1 :: 7.77
Cn1cc(C(=O)N2CC(Nc3cncc(N4C(=O)c5ccc(C#N)cc5C4(C)C)c3)C2)cn1 :: 7.51
O=C1c2ccc(Cl)cc2CCN1c1cncc(NC2CN(S(=O)(=O)C3CC3)C2)c1 :: 6.83
Cn1cc(C(=O)N2CCC(Nc3cncc(N4C(=O)c5ccc(C#N)cc5C4(C)C)c3)CC2)cn1 :: 7.28
Cn1cncc1C(=O)N1CC(Nc2cncc(N3C(=O)c4ccc(C#N)cc4C3(C)C)c2)C1 :: 7.60

====

- Measured on: UniProt:P15538
- Sequence (P15538 25-503): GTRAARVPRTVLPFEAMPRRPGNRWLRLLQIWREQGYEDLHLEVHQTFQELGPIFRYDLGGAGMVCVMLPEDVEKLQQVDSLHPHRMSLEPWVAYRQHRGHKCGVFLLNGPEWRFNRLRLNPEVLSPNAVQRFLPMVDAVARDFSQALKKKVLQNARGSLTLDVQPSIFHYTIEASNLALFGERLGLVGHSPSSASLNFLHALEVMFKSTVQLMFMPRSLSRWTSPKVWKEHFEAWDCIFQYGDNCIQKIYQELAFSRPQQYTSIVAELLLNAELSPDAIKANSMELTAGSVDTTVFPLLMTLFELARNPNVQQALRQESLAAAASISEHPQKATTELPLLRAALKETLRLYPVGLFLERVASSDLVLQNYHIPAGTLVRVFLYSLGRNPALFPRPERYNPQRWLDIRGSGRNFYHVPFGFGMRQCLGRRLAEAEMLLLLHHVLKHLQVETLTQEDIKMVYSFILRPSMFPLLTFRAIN
- Assay text: G-402 cellular enzyme assay, human CYP11B1 (cortisol release, HTRF)
- Experimental conditions: G-402 cells expressing human CYP11B1, 1 μM Deoxycortisol
pEC50: −log10 of the molar value.
Recorded pEC50 values for a group of compounds are listed next.
Endpoint: pEC50

CN(c1cncc(N2C(=O)c3ccc(Cl)cc3C2(C)C)c1)C1CCN(S(=O)(=O)C2CC2)C1 (single isomer, unassigned; (+)) [Example 4] :: 7.25
CC1(C)c2cc(C#N)ccc2C(=O)N1c1cncc(NC2CN(C(=O)c3ncccc3Cl)C2)c1 :: 5.92
C[C@@H]1c2cc(Cl)ccc2C(=O)N1c1cncc(NC2CN(S(=O)(=O)C3CC3)C2)c1 (single isomer, unassigned) [Example 30] :: 6.19
Cc1ccncc1C(=O)N1CC(Nc2cncc(N3C(=O)c4ccc(Cl)cc4C3C)c2)C1 (stereo not shown) :: 5.31
CN(c1cncc(N2C(=O)c3ccc(Cl)cc3C2(C)C)c1)C1CCN(S(=O)(=O)C2CC2)C1 (single isomer, unassigned; (-)) [Example 5] :: 6.88
C[C@H]1c2cc(Cl)ccc2C(=O)N1c1cncc(NC2CN(C(=O)c3ncccc3Cl)C2)c1 (single isomer, unassigned) :: 6.27
Cc1ccncc1C(=O)N1CCC(Nc2cncc(N3C(=O)c4ccc(C#N)cc4C3(C)C)c2)CC1 :: 4.98
Cn1cncc1C(=O)N1CCC(Nc2cncc(N3C(=O)c4ccc(C#N)cc4C3(C)C)c2)CC1 :: 4.97
Cn1cc(C(=O)N2CC(Nc3cncc(N4C(=O)c5ccc(Cl)cc5C4(C)C)c3)C2)cn1 :: 5.22
